study_target: Zinc finger protein mex-5 (Caenorhabditis elegans)
assay_protocol: MEX-5 RNA-binding inhibition confirmation – biochemical, C. elegans, fluorescence polarization, dose retest (AID 449745);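 further: potency is for blocking Mex-5 binding to labeled TCR2 RNA like unlabeled competitor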
condition_context: Mex-5 / TCR-2 RNA binding
Results filed as inconclusive are left out. Activity calls are given as the source filed them. How the calls were made is not given here.
Form entry, call: pick from active, inactive

Answered cases to consult:
**Query** Assay result, entry CC(=Nc1ccc(C)cc1C)c1sc2ccccc2c1O — outcome?
**Result** active

**Query** Would you mind doing O=C(O)c1ccccc1NS(=O)(=O)c1cccc(-n2sc3ccccc3c2=O)c1 as well?
**Result** active

**Query** Would you mind doing O=C(NC(=S)NNS(=O)(=O)c1ccccc1)c1ccc([N+](=O)[O-])cc1 as well?
**Result** active

**Query** Would you mind doing COCC1CCN(Cc2c(C(=O)N3CCc4ccccc4C3)nc3ccc(Cl)cn23)C1 (centres undefined) as well?
**Result** active

**Query** Would you mind doing Cc1cc[n+](-c2[nH]c(=O)sc2/C=N/NC([S-])=Nc2ccccc2)cc1 as well?
**Result** active

**Query** Would you mind doing Cc1ccccc1Nc1cc2ccccc2c(=O)[nH]1 as well?
**Result** active

---
**Query** Assay result, entry Cc1nc2ccc3nc(NC(=O)c4ccc5c(c4)OCCO5)sc3c2s1 — outcome?
**Result** inactive

**Query** Would you mind doing Oc1[nH]c2ccccc2c1N=NC(=S)N1CCOCC1 as well?
**Result** active

**Query** Would you mind doing CCOC(=O)/C=c1\s/c(=C\c2ccc3cc(OC)ccc3c2)c(=O)n1CC(=O)NCc1ccc2c(c1)OCO2 as well?
**Result** inactive

* * *

study_target: Zinc finger protein mex-5 (Caenorhabditis elegans)
assay_protocol: MEX-5 RNA-binding inhibition confirmation – biochemical, C. elegans, fluorescence polarization, dose retest (AID 449745)
condition_context: Mex-5 / TCR-2 RNA binding
Inconclusive results are not listed. Calls of active or inactive are those of the source. How the calls were made is not given here.
Form entry, call: pick from active, inactive

Answered cases to consult:
**Query** Assay result, entry NC1=NC(=O)/C(=C\C=C\c2ccccc2)S1 — outcome?
**Result** inactive

**Query** Would you mind doing CC1CC(=O)c2c(cc3c(-c4c(O)cc(O)c5c(O)c6c(cc45)OC(C)CC6=O)c(O)cc(O)c3c2O)O1 (configuration not stated) as well?
**Result** active

**Query** Would you mind doing COc1ccc(CN2C(=O)NC(=O)/C(=C\c3ccco3)C2=O)cc1 as well?
**Result** active

**Query** Would you mind doing COc1ccc(Cn2c3ccc(OC)cc3c3nc4ccccc4nc32)cc1 as well?
**Result** active

**Query** Would you mind doing CCOC(=O)c1ccc(N=Nc2c(C)c(C#N)c(O)[nH]c2=O)cc1 as well?
**Result** active

**Query** Would you mind doing CN(C)c1ccc(/C=N/NC(=O)c2cnc3ccccc3c2)cc1 as well?
**Result** active

// next entry
**Query** Assay result, entry Cc1cccc(C2Nc3ccccc3C(=O)N2NC(=O)c2ccc([N+](=O)[O-])cc2)n1 (configuration not stated) — outcome?
**Result** active

* * *

study_target: Zinc finger protein mex-5 (Caenorhabditis elegans) (UniProt Q9XUB2)
Sequence (Q9XUB2 whole entry, looked up): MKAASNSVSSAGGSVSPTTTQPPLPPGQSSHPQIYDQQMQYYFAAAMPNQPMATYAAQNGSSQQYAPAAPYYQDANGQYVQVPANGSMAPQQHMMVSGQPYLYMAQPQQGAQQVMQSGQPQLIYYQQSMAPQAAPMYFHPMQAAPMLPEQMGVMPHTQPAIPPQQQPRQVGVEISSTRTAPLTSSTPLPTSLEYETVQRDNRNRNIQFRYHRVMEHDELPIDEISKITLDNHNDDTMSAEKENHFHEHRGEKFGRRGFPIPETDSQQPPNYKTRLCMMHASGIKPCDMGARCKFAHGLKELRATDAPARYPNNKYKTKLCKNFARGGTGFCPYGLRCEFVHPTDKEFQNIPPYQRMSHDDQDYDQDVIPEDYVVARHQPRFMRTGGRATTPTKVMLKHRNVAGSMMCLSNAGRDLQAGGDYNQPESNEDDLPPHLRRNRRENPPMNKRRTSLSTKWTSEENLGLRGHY
assay_protocol: MEX-5 RNA-binding inhibition confirmation – biochemical, C. elegans, fluorescence polarization, dose retest (AID 449745)
condition_context: Mex-5 / TCR-2 RNA binding
Records with an inconclusive call do not appear. Calls of active or inactive are those of the source. No rule for the calls is given here.
Form entry, call: pick from TRUE = active, FALSE = inactive

**Query** Assay result, entry Cc1nn(C)cc1C(=O)NNC(=S)Nc1ccccc1 — outcome?
**Result** TRUE

**Query** Would you mind doing CCOc1cc(Br)c(/C=C2/C(=O)N(C)C(=S)N2CC(=O)OC)cc1OC as well?
**Result** FALSE

**Query** Would you mind doing CC(C)(C)OC(=O)NCCCC1=CC2=CC(=O)C(C)(O)C(=O)C2=CO1 (centres undefined) as well?
**Result** TRUE

**Query** Would you mind doing COc1cc(/C=C2/C(=O)NN(c3ccc(Cl)c(Cl)c3)C2=O)cc([N+](=O)[O-])c1O as well?
**Result** TRUE

**Query** Would you mind doing N#CC(C#N)=NNc1ccc(S(N)(=O)=O)cc1 as well?
**Result** TRUE

---
**Query** Assay result, entry Cc1cccc(C)c1NC(=O)/C(C#N)=C/c1ccc(-c2ccc(C(=O)O)cc2)o1 — outcome?
**Result** FALSE

**Query** Would you mind doing O=[N+]([O-])c1ccc(NCc2ccccc2)c2nonc12 as well?
**Result** TRUE

* * *

study_target: Zinc finger protein mex-5 (Caenorhabditis elegans)
assay_protocol: MEX-5 RNA-binding inhibition confirmation – biochemical, C. elegans, fluorescence polarization, dose retest (AID 449745)
condition_context: Mex-5 / TCR-2 RNA binding
Results filed as inconclusive are left out. Calls of active or inactive are those of the source. The rule behind the calls is not given here.
Form entry, call: pick from active, inactive

**Query** Assay result, entry Cc1ccc(N=Nc2c(O)n(CN3CCOCC3)c3ccccc23)cc1 — outcome?
**Result** active

**Query** Would you mind doing CN1CCN(c2nc(-c3ccccc3)nc(-c3ccccc3)c2C#N)CC1 as well?
**Result** inactive

**Query** Would you mind doing CC1(OC(=O)c2ccc(Cl)nc2)C(=O)C=C2C=C(c3ccc(C#N)cc3)OC=C2C1=O (centres undefined) as well?
**Result** active

// next entry
**Query** Assay result, entry CCc1cccc2cc3c(N)c(C(=O)Nc4ccc(S(=O)(=O)N5CCCC5)cc4)sc3nc12 — outcome?
**Result** active

* * *

study_target: Zinc finger protein mex-5 (Caenorhabditis elegans)
assay_protocol: MEX-5 RNA-binding inhibition confirmation – biochemical, C. elegans, fluorescence polarization, dose retest (AID 449745);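 further: potency is for blocking Mex-5 binding to labeled TCR2 RNA like unlabeled competitor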
condition_context: Mex-5 / TCR-2 RNA binding
Inconclusive results are not listed. Calls of active or inactive are those of the source. How the calls were made is not given here.
Form entry, call: pick from class 1 for active, class 0 for inactive

Answered cases to consult:
**Query** Assay result, entry OC(CNC1CCCC1)COc1ccccc1Br (centres undefined) — outcome?
**Result** class 0

**Query** Would you mind doing O=C(O)COc1ccccc1C(Nc1cccnc1)c1cc(Cl)c2cccnc2c1O (centres undefined) as well?
**Result** class 1

**Query** Would you mind doing Nc1ccc2nc3c(=O)n(CCc4ccccc4)c(=O)[nH]c3nc2c1 as well?
**Result** class 1

**Query** Would you mind doing CC1(C)CC2(CC(c3ccccc3F)c3ccc(O)c(O)c3O2)NC(=S)N1 (centres undefined) as well?
**Result** class 1

**Query** Would you mind doing Cc1nnc(SCc2nc3sc4c(c3c(=O)[nH]2)CCCC4)n(N)c1=O as well?
**Result** class 0

**Query** Would you mind doing CCCCN(C(=O)C1=COCCO1)c1c(N)n(Cc2ccccc2)c(=O)[nH]c1=O as well?
**Result** class 0

---
**Query** Assay result, entry CSc1nc(N)c(N=Nc2ccc([As](=O)(O)O)cc2)c(=O)[nH]1 — outcome?
**Result** class 1

* * *

study_target: UniProt:Q9XUB2
assay_protocol: MEX-5 RNA-binding inhibition confirmation – biochemical, C. elegans, fluorescence polarization, dose retest (AID 449745);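 further: potency is for blocking Mex-5 binding to labeled TCR2 RNA like unlabeled competitor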
condition_context: Mex-5 / TCR-2 RNA binding
Inconclusive results are not listed. Active and inactive are the calls of the source. No rule for the calls is given here.
Form entry, call: pick from yes = active, no = inactive

Answered cases to consult:
**Query** Assay result, entry CCCCCCc1cc2cc(C(=O)NC)c(=N)oc2cc1O — outcome?
**Result** yes

**Query** Would you mind doing O=C(CN1C(=O)/C(=C/c2cccc(Br)c2)SC1=S)NC1=NCCS1 as well?
**Result** no

**Query** Would you mind doing O=C(/C=C/Nc1ccc(S(=O)(=O)Nc2cnc3ccccc3n2)cc1)c1ccccc1 as well?
**Result** no

**Query** Would you mind doing COC(=O)COc1ccc(C2Nc3c(Cl)ccc(C(=O)O)c3C3C=CCC32)cc1 (stereo not drawn) as well?
**Result** no

**Query** Would you mind doing COc1cc(CCC(=O)Nc2ccc(Cl)c(C(F)(F)F)c2)cc(OC)c1OC as well?
**Result** no

**Query** Would you mind doing COC/C=C/C1=CC2=CC(=O)C(C)(O)C(=O)C2=CO1 (stereo not drawn) as well?
**Result** yes

// next entry
**Query** Assay result, entry Cc1cc(O)c(-c2cc(O)c(C)cc2O)cc1O — outcome?
**Result** yes

* * *

study_target: UniProt:Q9XUB2
assay_protocol: MEX-5 RNA-binding inhibition confirmation – biochemical, C. elegans, fluorescence polarization, dose retest (AID 449745);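 further: potency is for blocking Mex-5 binding to labeled TCR2 RNA like unlabeled competitor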
condition_context: Mex-5 / TCR-2 RNA binding
Records with an inconclusive call do not appear. The source made the active and inactive calls. The rule behind the calls is not given here.
Form entry, call: pick from yes (1) = active, no (0) = inactive

**Query** Assay result, entry N=c1c(C(=O)NCC2CCCO2)cc2c(=O)n3ccccc3nc2n1Cc1ccc(Cl)cc1 (configuration not stated) — outcome?
**Result** no (0)

**Query** Would you mind doing COc1ccc(NC(=S)NNc2ccc(S(=O)(=O)Nc3ccccc3C(=O)O)cc2[N+](=O)[O-])cc1 as well?
**Result** yes (1)

**Query** Would you mind doing COc1ccccc1OCC(=O)NNC(=O)c1cnccn1 as well?
**Result** yes (1)

**Query** Would you mind doing Cc1ccc(N2C(=O)NC(=O)/C(=C\c3ccc([N+](=O)[O-])o3)C2=O)cc1 as well?
**Result** yes (1)

**Query** Would you mind doing COc1ccc(OC)c(N2C(=O)NC(=O)/C(=C\c3ccc([N+](=O)[O-])s3)C2=O)c1 as well?
**Result** yes (1)

**Query** Would you mind doing Cc1nc2ccccc2n1/N=C/c1ccc([N+](=O)[O-])s1 as well?
**Result** no (0)

**Query** Would you mind doing COc1cc(C(=O)NC(=S)NNC(=O)c2cnccn2)cc(OC)c1OC as well?
**Result** yes (1)

**Query** Would you mind doing CCOC(=O)/C(C#N)=C\c1ccc(N2CCN(C/C=C/c3ccccc3)CC2)cc1 as well?
**Result** yes (1)

**Query** Would you mind doing O=C(CN1C(=O)/C(=C/c2ccco2)SC1=S)Nc1ccc(C(=O)O)c(O)c1 as well?
**Result** yes (1)

**Query** Would you mind doing CC(C)N1CCc2c(sc(NC(=O)c3ccc(S(=O)(=O)N4CCCCC4C)cc3)c2C(N)=O)C1 (configuration not stated) as well?
**Result** no (0)

---
**Query** Assay result, entry N#C/C(=C\c1cccs1)C(=O)Nc1ccccn1 — outcome?
**Result** yes (1)
